# subject-of-test: Mcl-1 (Homo sapiens (Human))
# Sequence (Q07820 172-327): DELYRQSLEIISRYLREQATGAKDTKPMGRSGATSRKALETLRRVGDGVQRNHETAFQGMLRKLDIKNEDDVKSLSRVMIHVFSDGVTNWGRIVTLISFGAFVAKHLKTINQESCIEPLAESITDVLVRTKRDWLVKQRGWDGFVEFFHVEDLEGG
# protocol-summary: Fluorescence polarization competition assay (FPCA), Mcl-1 / FITC-Bak BH3 peptide
# Type: binding
# condition-set: ΔG=−RTlnKi from experimental Ki
reported-metric: Mcl-1 Exp ΔG (kcal/mol)

// worked examples, Mcl-1 Exp ΔG included
>  <molecule-smiles>
O=C(O)c1cc(S(=O)(=O)Nc2ccc(Oc3ccc(Cl)cc3)cc2)c2ccccc2c1O

>  <reported-metric>
Mcl-1 Exp ΔG

>  <endpoint-result>
-9.22

$$$$
>  <molecule-smiles>
O=C(O)c1cc(S(=O)(=O)N2CCN(Cc3ccccc3)CC2)c2ccccc2c1O

>  <reported-metric>
Mcl-1 Exp ΔG

>  <endpoint-result>
-7.45

$$$$

(a) O=C(O)c1cc(S(=O)(=O)NCc2ccc(Cl)cc2)c2ccccc2c1O
(b) Cc1cc(Oc2ccc(NS(=O)(=O)c3cc(C(=O)O)c(O)c4ccccc34)cc2)cc(C)c1Cl
Q: Compare a and b and name the one whose reported Mcl-1 Exp ΔG is smaller. To answer, give the label that identifies your chosen option.
Ans: b

Values were extracted from patent US10858316B2.
